Value source: ChEMBL document CHEMBL1201862

system: ACHN; experiment: NCI tumour cell line growth inhibition, 48 h
Calls of active or inactive are those of the source. Cut-off read from the data, not from the text of the source: active = GI50 up to about 1.1 µM and inactive = higher.
outcome-measure: GI50

Reference set, count: 3
COc1cc(-c2cc(=O)c3cc4c(=O)cc(-c5cc(OC)c(OC)c(OC)c5)oc4cc3o2)cc(OC)c1OC: 25.1 µM (inactive)
CCOC(=O)C1=C(OC(OCC)C(C)[Se]c2ccccc2)CCC1 (stereo not drawn): 26.9 µM (inactive)
O=C(NC1CCC(=O)N1C(=O)OCc1ccccc1)OCc1ccccc1 (stereo not drawn): > 100 µM (inactive)

Task: Query (compound): CO[C@@H]1C=C[C@@]23c4cc5c(cc4C(=O)O[C@H]2CN(C)[C@H]3C1)OCO5 ; field requested: GI50
Result: > 100 µM (inactive)

Task: Bench note: what GI50 did O=C1/C(=C\c2ccccc2)c2ccccc2N1/N=C\c1ccccc1 show?
Result: > 100 µM (inactive)

Task: Quick check: GI50 of O=C1C=C(Nc2ccc(S(=O)(=O)Nc3ncccn3)cc2)c2ccccc2C1=O ?
Result: 27 µM (inactive)

Task: So what's the measured GI50 for this one? CC(NC(=O)OC(C)(C)C)C(=O)C(N)=O (stereo not drawn)
Result: > 100 µM (inactive)

Task: Looking for the measured GI50 of CC(C)OP(=O)(OC(C)C)c1c(N)n[nH]c1Nc1ccccc1 , can you help?
Result: > 100 µM (inactive)
